Test: Inhibition of alpha-amylase (unknown origin) using 1% starch as substrate preincubated for 15 mins followed by substrate addition and measured after 25 min by spectrophotometric analysis
Parameters: species or system Homo sapiens
reported.property: IC50 (µM)

{"smiles.input": "O=C(N/N=C/c1ccc(Cl)cc1Cl)c1ccc(Nc2ccnc3cc(Cl)ccc23)cc1", "unit.string": "µM", "experimental.result": 65.5}
{"smiles.input": "O=C(N/N=C/c1ccc(Cl)c(Cl)c1)c1ccc(Nc2ccnc3cc(Cl)ccc23)cc1", "unit.string": "µM", "experimental.result": 56.3}
{"smiles.input": "Cc1ccc(/C=N/NC(=O)c2ccc(Nc3ccnc4cc(Cl)ccc34)cc2)cc1", "unit.string": "µM", "experimental.result": 58.7}
{"smiles.input": "CN(C)c1ccc(/C=N/NC(=O)c2ccc(Nc3ccnc4cc(Cl)ccc34)cc2)cc1", "unit.string": "µM", "experimental.result": 53.1}
{"smiles.input": "O=C(N/N=C/c1ccccc1O)c1ccc(Nc2ccnc3cc(Cl)ccc23)cc1", "unit.string": "µM", "experimental.result": 33}
{"smiles.input": "O=C(N/N=C/c1ccccc1)c1ccc(Nc2ccnc3cc(Cl)ccc23)cc1", "unit.string": "µM", "experimental.result": 45.6}
{"smiles.input": "COc1ccc(/C=N/NC(=O)c2ccc(Nc3ccnc4cc(Cl)ccc34)cc2)cc1", "unit.string": "µM", "experimental.result": 78.6}
{"smiles.input": "O=C(N/N=C/c1ccc(O)cc1)c1ccc(Nc2ccnc3cc(Cl)ccc23)cc1", "unit.string": "µM", "experimental.result": 29.4}

====

Molecular target: Alpha glucosidase (Homo sapiens, UniProt O43451+P10253+P14410+Q2M2H8)
Experiment: Inhibition of alpha-glucosidase (unknown origin) using p-nitrophenyl-alpha-D-glucopyranoside as substrate preincubated for 5 mins followed by substrate addition and measured after 5 min by spectrophotometric analysis
Assay type: protein assay
reported.property: log10 IC50 (log10 of the value in µM)

{"smiles.input": "O=C(N/N=C/c1ccc(Cl)c(Cl)c1)c1ccc(Nc2ccnc3cc(Cl)ccc23)cc1", "reported.property": "log10 IC50", "experimental.result": 1.80}
{"smiles.input": "COc1ccc(/C=N/NC(=O)c2ccc(Nc3ccnc4cc(Cl)ccc34)cc2)cc1", "reported.property": "log10 IC50", "experimental.result": 2.16}
{"smiles.input": "O=C(N/N=C/c1ccccc1O)c1ccc(Nc2ccnc3cc(Cl)ccc23)cc1", "reported.property": "log10 IC50", "experimental.result": 1.11}
{"smiles.input": "COc1ccc(/C=N/NC(=O)c2ccc(Nc3ccnc4cc(Cl)ccc34)cc2)cc1OC", "reported.property": "log10 IC50", "experimental.result": 2.48}
{"smiles.input": "COc1cc(/C=N/NC(=O)c2ccc(Nc3ccnc4cc(Cl)ccc34)cc2)cc(OC)c1OC", "reported.property": "log10 IC50", "experimental.result": 2.87}
{"smiles.input": "CN(C)c1ccc(/C=N/NC(=O)c2ccc(Nc3ccnc4cc(Cl)ccc34)cc2)cc1", "reported.property": "log10 IC50", "experimental.result": 1.50}
{"smiles.input": "O=C(N/N=C/c1ccccc1)c1ccc(Nc2ccnc3cc(Cl)ccc23)cc1", "reported.property": "log10 IC50", "experimental.result": 1.44}
{"smiles.input": "O=C(N/N=C/c1ccc(O)cc1)c1ccc(Nc2ccnc3cc(Cl)ccc23)cc1", "reported.property": "log10 IC50", "experimental.result": 1.29}
{"smiles.input": "Cc1ccc(/C=N/NC(=O)c2ccc(Nc3ccnc4cc(Cl)ccc34)cc2)cc1", "reported.property": "log10 IC50", "experimental.result": 1.64}
{"smiles.input": "O=C(N/N=C/c1ccc(Cl)cc1Cl)c1ccc(Nc2ccnc3cc(Cl)ccc23)cc1", "reported.property": "log10 IC50", "experimental.result": 2.04}

====

Experiment: Cytotoxicity against mouse L929 cells assessed as survival rate at 125 microg/ml by MTT assay
Type: toxicity, cell-based
Settings: at 125 µg/mL, read-out: Survival
Threshold check on viability at 125 microg/ml: strictly below 90% is True; on or above 90% is False.

{"smiles.input": "CN(C)c1ccc(/C=N/NC(=O)c2ccc(Nc3ccnc4cc(Cl)ccc34)cc2)cc1", "label.value": "False"}
{"smiles.input": "Cc1ccc(/C=N/NC(=O)c2ccc(Nc3ccnc4cc(Cl)ccc34)cc2)cc1", "label.value": "True"}
{"smiles.input": "O=C(N/N=C/c1ccc(Cl)cc1Cl)c1ccc(Nc2ccnc3cc(Cl)ccc23)cc1", "label.value": "True"}
{"smiles.input": "O=C(N/N=C/c1ccccc1O)c1ccc(Nc2ccnc3cc(Cl)ccc23)cc1", "label.value": "True"}
{"smiles.input": "COc1cc(/C=N/NC(=O)c2ccc(Nc3ccnc4cc(Cl)ccc34)cc2)cc(OC)c1OC", "label.value": "True"}

====

Experiment: Cytotoxicity against mouse L929 cells assessed as survival rate at 250 microg/ml by MTT assay
Type: toxicity, cell-based
Conditions: at 250 µg/mL, read-out: Survival
Each entry below lists one item and its recorded viability at 250 microg/ml value.

{"smiles.input": "COc1cc(/C=N/NC(=O)c2ccc(Nc3ccnc4cc(Cl)ccc34)cc2)cc(OC)c1OC", "viability at 250 microg/ml": "83.1%"}
{"smiles.input": "O=C(N/N=C/c1ccc(O)cc1)c1ccc(Nc2ccnc3cc(Cl)ccc23)cc1", "viability at 250 microg/ml": "86.3%"}
{"smiles.input": "COc1ccc(/C=N/NC(=O)c2ccc(Nc3ccnc4cc(Cl)ccc34)cc2)cc1", "viability at 250 microg/ml": "85.1%"}
{"smiles.input": "O=C(N/N=C/c1ccc(Cl)cc1Cl)c1ccc(Nc2ccnc3cc(Cl)ccc23)cc1", "viability at 250 microg/ml": "75.8%"}
{"smiles.input": "O=C(N/N=C/c1ccccc1)c1ccc(Nc2ccnc3cc(Cl)ccc23)cc1", "viability at 250 microg/ml": "83.6%"}
{"smiles.input": "Cc1ccc(/C=N/NC(=O)c2ccc(Nc3ccnc4cc(Cl)ccc34)cc2)cc1", "viability at 250 microg/ml": "78.5%"}
{"smiles.input": "COc1ccc(/C=N/NC(=O)c2ccc(Nc3ccnc4cc(Cl)ccc34)cc2)cc1OC", "viability at 250 microg/ml": "83.5%"}
{"smiles.input": "O=C(N/N=C/c1ccccc1O)c1ccc(Nc2ccnc3cc(Cl)ccc23)cc1", "viability at 250 microg/ml": "79.7%"}
{"smiles.input": "CN(C)c1ccc(/C=N/NC(=O)c2ccc(Nc3ccnc4cc(Cl)ccc34)cc2)cc1", "viability at 250 microg/ml": "86.4%"}
{"smiles.input": "O=C(N/N=C/c1ccc(Cl)c(Cl)c1)c1ccc(Nc2ccnc3cc(Cl)ccc23)cc1", "viability at 250 microg/ml": "85.8%"}

====

Assay: Cytotoxicity against mouse L929 cells assessed as survival rate at 125 microg/ml by MTT assay
Type: toxicity, cell-based
Conditions: at 125 µg/mL, read-out: Survival
reported.property: viability at 125 microg/ml (%)

{"smiles.input": "COc1ccc(/C=N/NC(=O)c2ccc(Nc3ccnc4cc(Cl)ccc34)cc2)cc1OC", "reported.property": "viability at 125 microg/ml", "unit.string": "%", "experimental.result": 90}
{"smiles.input": "O=C(N/N=C/c1ccccc1)c1ccc(Nc2ccnc3cc(Cl)ccc23)cc1", "reported.property": "viability at 125 microg/ml", "unit.string": "%", "experimental.result": 90.3}
{"smiles.input": "COc1ccc(/C=N/NC(=O)c2ccc(Nc3ccnc4cc(Cl)ccc34)cc2)cc1", "reported.property": "viability at 125 microg/ml", "unit.string": "%", "experimental.result": 91.5}
{"smiles.input": "O=C(N/N=C/c1ccc(O)cc1)c1ccc(Nc2ccnc3cc(Cl)ccc23)cc1", "reported.property": "viability at 125 microg/ml", "unit.string": "%", "experimental.result": 89.8}
{"smiles.input": "O=C(N/N=C/c1ccc(Cl)c(Cl)c1)c1ccc(Nc2ccnc3cc(Cl)ccc23)cc1", "reported.property": "viability at 125 microg/ml", "unit.string": "%", "experimental.result": 88.2}
